B1: Osa-1-4 twister ribozyme (parent)
chain: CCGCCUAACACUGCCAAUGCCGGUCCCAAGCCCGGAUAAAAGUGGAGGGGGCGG

Variants of: B1
Experiment: self-cleavage, relative activity (ratio to wild type); higher = more cleavage; co-transcriptional
Given measured self-cleavage, output 1 if it is greater than or equal to 0.2 and -1 if not.

Reference set (10 entries):
Variant Identifier	Category
C21A C31A	-1
C26G G44A	-1
A16G C25A	1
A17C A29C	-1
C32U G49A	-1
G47U U43C	-1
C14A C15G	-1
C21U C27U	-1
A41U G50A	1
C15U G50A	1

Quick check, self-cleavage >= 0.2? A39C G50U
1

// data source = the RNAGym collection of RNA variant scans (doi:10.1002/anie.201605470)
